Measured values drawn from PubChem BioAssay AID2060489 for this set.

Item-by-item account of viability, T/C
Tested on: 922993-354-T-J3-PDC complex spheroids, viability;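 further: spheroids exposed to compounds for seven days; 100% = DMSO vehicle control viability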
assay-summary: Anticancer human tumor 922993-354-T-J3-PDC patient-derived endometrial carcinoma cell line growth inhibition [GQUAD]
assay-context: second compound 0.316 µM; first compound 0.316 µM; hits give low values
measure: viability, T/C (%)

compound	measure	numeric-result
COc1ncnc(C2CC2)c1-c1ncc2cnn(Cc3ccc(-c4nc(C(F)(F)F)cn4C(C)C)cc3)c2n1 + Cc1[nH]c2ccc(F)cc2c1-c1nc2c3cccnc3c3ncccc3c2[nH]1	viability, T/C	94.7
CC1COCCN1c1cc(C2(S(C)(=N)=O)CC2)nc(-c2ccnc3[nH]ccc23)n1 (stereo unspecified) + CN(C)c1ccc(Nc2c3ccc(NC(=O)CCN4CCCC4)cc3nc3cc(NC(=O)CCN4CCCC4)ccc23)cc1	viability, T/C	89
O=c1[nH]cc(F)c(=O)[nH]1 + Cc1cnc(CNC(=O)c2c(=O)c3ccc(N4CCCN(C)CC4)nc3n3c2sc2ccccc23)cn1	viability, T/C	45.5
CC(=O)O[C@H]1C(=O)[C@@]2(C)[C@H]([C@H](OC(=O)c3ccccc3)[C@]3(O)C[C@H](OC(=O)[C@H](O)[C@@H](NC(=O)c4ccccc4)c4ccccc4)C(C)=C1C3(C)C)[C@]1(OC(C)=O)CO[C@@H]1C[C@@H]2O + CN(C)c1ccc(Nc2c3ccc(NC(=O)CCN4CCCC4)cc3nc3cc(NC(=O)CCN4CCCC4)ccc23)cc1	viability, T/C	116
Nc1ccn(C2OC(CO)C(O)C2(F)F)c(=O)n1 (stereo unspecified) + CN(C)c1ccc(Nc2c3ccc(NC(=O)CCN4CCCC4)cc3nc3cc(NC(=O)CCN4CCCC4)ccc23)cc1	viability, T/C	10.7
O=c1[nH]cc(F)c(=O)[nH]1 + CN(C)c1ccc(Nc2c3ccc(NC(=O)CCN4CCCC4)cc3nc3cc(NC(=O)CCN4CCCC4)ccc23)cc1	viability, T/C	91.4
